The entries below come with measured z-score values attached.
assay: resazurin metabolic signal in A549 cells – cell-based, resazurin fluorescence, 24 h, PK04 Diversity Set, profiling panel (AID 1171); further: test concentration not given here
runParameters: A549 viability, higher = more signal, called active from +8 up or from −8 down
# output: bare number, no unit

Name the recorded z-score of the item O=C(C1N=C(c2ccc(OCCCO)cc2)N(c2ccccc2)O1)N1CCCCC1 (configuration not stated) in your answer.
1.07

Give the measured z-score for Cc1ccc(S[C@]2(C(=O)NC(C)C)CC(=O)N(Cc3cc(C(F)(F)F)cc(C(F)(F)F)c3)[C@@H]2c2ccc(CO)cc2)cc1
0.271

Respond only with z-score recorded for COC(=O)C1=CC(CCCO)=CC(c2cccs2)N(C)C=C1C(=O)OC (configuration not stated)
-0.28

Sourced from PubChem BioAssay
